Biological target: UniProtKB P27338
Sequence (P27338 whole entry): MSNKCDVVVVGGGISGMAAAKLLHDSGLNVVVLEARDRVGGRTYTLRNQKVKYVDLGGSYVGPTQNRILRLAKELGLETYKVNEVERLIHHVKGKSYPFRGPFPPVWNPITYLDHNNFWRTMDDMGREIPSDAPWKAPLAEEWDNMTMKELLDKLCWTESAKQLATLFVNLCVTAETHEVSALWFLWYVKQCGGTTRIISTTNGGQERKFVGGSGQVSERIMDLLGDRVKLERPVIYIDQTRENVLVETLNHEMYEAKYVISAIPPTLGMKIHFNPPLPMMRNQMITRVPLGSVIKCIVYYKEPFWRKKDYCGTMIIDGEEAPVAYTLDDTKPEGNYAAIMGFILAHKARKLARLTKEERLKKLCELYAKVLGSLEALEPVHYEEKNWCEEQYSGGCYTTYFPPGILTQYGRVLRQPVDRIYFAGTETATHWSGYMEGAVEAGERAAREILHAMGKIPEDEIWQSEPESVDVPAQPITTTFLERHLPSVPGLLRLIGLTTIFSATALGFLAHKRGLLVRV
Assay: Inhibition of recombinant human MAO-B using p-tyramine as substrate preincubated for 15 mins followed by substrate addition measured over 15 mins by Amplex red reagent-based fluorimetric method
readout: pIC50
FYI, pIC50 means -log10 of a concentration in mol per litre.

Below are worked cases with known answers.
C#CCNC1CCc2c(OCc3ccc(F)cc3)cccc21 (stereo not given) : 5.73
C#CCNC1CCc2c(OCCc3cccc(Cl)c3)cccc21 (stereo not given) : 5.23
C#CCNC1CCc2c(SCc3ccccc3)cccc21 (stereo not given) : 5.20
C#CCNC1CCc2c(OCc3ccc(C(F)(F)F)cc3)cccc21 (stereo not given) : 5.86

Data request: Tell me its pIC50 given C#CCNC1CCc2c(OCCOc3ccccc3)cccc21 (stereo not given) as the entry.
Data returned: 5.34

Data request: Tell me its pIC50 given C#CCNC1CCc2c(OCc3ccc(C)cc3)cccc21 (stereo not given) as the entry.
Data returned: 5.96
